# Tested on: 349418-098-R-PDC complex spheroid growth
# Assay Comment: Anticancer human tumor 349418-098-R-PDC patient-derived lung adenocarcinoma cell line growth inhibition [AhR]
# Experimental Context: second compound 0.1 µM; first compound 0.1 µM; stronger effect = lower value
Doc: threshold 60% (exclusive). Items with viability, T/C beneath it return TRUE; others return FALSE.

Please review the following examples before continuing.
| Molecule | Group Label |
| --- | --- |
| COc1cccc2c1C(=O)c1c(O)c3c(c(O)c1C2=O)CC(O)(C(=O)CO)CC3OC1CC(N)C(O)C(C)O1 (stereo not given) + Cc1cncc(-c2nc(NCCc3c[nH]c4ccccc34)c3ncn(C(C)C)c3n2)c1 | TRUE |
| CC1(C)CCC(CN2CCN(c3ccc(C(=O)NS(=O)(=O)c4ccc(NCC5CCOCC5)c([N+](=O)[O-])c4)c(Oc4cnc5[nH]ccc5c4)c3)CC2)=C(c2ccc(Cl)cc2)C1 + Cc1cncc(-c2nc(NCCc3c[nH]c4ccccc34)c3ncn(C(C)C)c3n2)c1 | FALSE |
| CC1COCCN1c1cc(-c2ccnn2C)c2ccnc(-c3ccn[nH]3)c2n1 (stereo not given) + CC(CO)NC(=O)c1cc(-c2ccc(Cl)cc2)nn(-c2cnn(C)c2)c1=O | TRUE |

# strict comparison: is reported viability, T/C < 60%? input = CC1COCCN1c1cc(C2(S(C)(=N)=O)CC2)nc(-c2ccnc3[nH]ccc23)n1 (stereo not given) + Cc1cncc(-c2nc(NCCc3c[nH]c4ccccc34)c3ncn(C(C)C)c3n2)c1
FALSE

----------
# Test system: 349418-098-R-PDC complex spheroid growth
# Assay Comment: Anticancer human tumor 349418-098-R-PDC cell line growth inhibition [AhR];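 note: spheroids also contain HUVEC endothelial cells and human MSC stroma; spheroids exposed to agents for seven days before luminescence viability read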
# Experimental Context: second compound 0.1 µM; first compound 0.003 µM; stronger effect = lower value
Measurement Name: viability, T/C (%)
Field: numeric (%). Do not append units.

Examples with answers:
| Compound | Target | Unit Info | viability, T/C |
| --- | --- | --- | --- |
| CC(C)CC(NC(=O)C(Cc1ccccc1)NC(=O)c1cnccn1)B(O)O (centres undefined) + Cc1ccccc1N=Nc1ccc(NC(=O)c2ccnn2C)c(C)c1 | 349418-098-R-PDC complex spheroid growth | % | 11.1 |
| CC(C)CC(NC(=O)C(Cc1ccccc1)NC(=O)c1cnccn1)B(O)O (centres undefined) + CC(CO)NC(=O)c1cc(-c2ccc(Cl)cc2)nn(-c2cnn(C)c2)c1=O | 349418-098-R-PDC complex spheroid growth | % | 6.06 |
| CCc1c2c(nc3ccc(O)cc13)-c1cc3c(c(=O)n1C2)COC(=O)[C@]3(O)CC + Cc1ccccc1N=Nc1ccc(NC(=O)c2ccnn2C)c(C)c1 | 349418-098-R-PDC complex spheroid growth | % | 57.2 |

Fill in reported viability, T/C for this entry: CCc1c2c(nc3ccc(O)cc13)-c1cc3c(c(=O)n1C2)COC(=O)[C@]3(O)CC + Cc1cncc(-c2nc(NCCc3c[nH]c4ccccc34)c3ncn(C(C)C)c3n2)c1
24.2

Respond only with viability, T/C recorded for CC(C)CC(NC(=O)C(Cc1ccccc1)NC(=O)c1cnccn1)B(O)O (centres undefined) + Cc1cncc(-c2nc(NCCc3c[nH]c4ccccc34)c3ncn(C(C)C)c3n2)c1
11.2

----------
# System: 349418-098-R-PDC complex spheroid growth
# Assay Comment: Anticancer human tumor 349418-098-R-PDC cell line growth inhibition [AhR];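 note: spheroids also contain HUVEC endothelial cells and human MSC stroma; spheroids exposed to agents for seven days before luminescence viability read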
# Experimental Context: second compound 1 µM; first compound 0.0316 µM; stronger effect = lower value
viability, T/C values, listed per item
# number only, unit % dropped from output

Answered cases to consult:
| Molecule | Target | Measurement Name | Quantitative Result |
| --- | --- | --- | --- |
| CC1(C)CCC(CN2CCN(c3ccc(C(=O)NS(=O)(=O)c4ccc(NCC5CCOCC5)c([N+](=O)[O-])c4)c(Oc4cnc5[nH]ccc5c4)c3)CC2)=C(c2ccc(Cl)cc2)C1 + Cc1cncc(-c2nc(NCCc3c[nH]c4ccccc34)c3ncn(C(C)C)c3n2)c1 | 349418-098-R-PDC complex spheroid growth | viability, T/C | 104 |
| Nc1ccccc1NC(=O)c1ccc(CNC(=O)OCc2cccnc2)cc1 + Cc1ccccc1N=Nc1ccc(NC(=O)c2ccnn2C)c(C)c1 | 349418-098-R-PDC complex spheroid growth | viability, T/C | 97.7 |
| COc1cc(C2c3cc4c(cc3C(OC3OC5COC(C)OC5C(O)C3O)C3COC(=O)C23)OCO4)cc(OC)c1O (stereo unspecified) + CC(CO)NC(=O)c1cc(-c2ccc(Cl)cc2)nn(-c2cnn(C)c2)c1=O | 349418-098-R-PDC complex spheroid growth | viability, T/C | 102 |
| Nc1ccn(C2OC(CO)C(O)C2(F)F)c(=O)n1 (stereo unspecified) + Cc1cncc(-c2nc(NCCc3c[nH]c4ccccc34)c3ncn(C(C)C)c3n2)c1 | 349418-098-R-PDC complex spheroid growth | viability, T/C | 5.67 |

Specify reported viability, T/C for the molecule shown: COc1cccc2c1C(=O)c1c(O)c3c(c(O)c1C2=O)CC(O)(C(=O)CO)CC3OC1CC(N)C(O)C(C)O1 (stereo unspecified) + Cc1cncc(-c2nc(NCCc3c[nH]c4ccccc34)c3ncn(C(C)C)c3n2)c1
10.5

Provide one value: measured viability, T/C of NS(=O)(=O)OCC1CC(n2ccc3c(NC4CCc5ccccc54)ncnc32)CC1O (stereo unspecified) + Cc1ccccc1N=Nc1ccc(NC(=O)c2ccnn2C)c(C)c1
90.4

Specify reported viability, T/C for the molecule shown: COc1ccc([C@@H](O)c2cc(-c3ncnc4cc(N5CCOCC5)ccc34)c(F)cc2Cl)nn1 + CC(CO)NC(=O)c1cc(-c2ccc(Cl)cc2)nn(-c2cnn(C)c2)c1=O
96.9

Note viability, T/C for the molecule shown: CC[C@@]1(O)C(=O)OCc2c1cc1n(c2=O)Cc2cc3c(CN(C)C)c(O)ccc3nc2-1 + CC(CO)NC(=O)c1cc(-c2ccc(Cl)cc2)nn(-c2cnn(C)c2)c1=O
29.3

Consider the molecule CC1COCCN1c1cc(C2(S(C)(=N)=O)CC2)nc(-c2ccnc3[nH]ccc23)n1 (stereo unspecified) + Cc1cncc(-c2nc(NCCc3c[nH]c4ccccc34)c3ncn(C(C)C)c3n2)c1 and give its recorded viability, T/C.
78.7

Return viability, T/C (reported value) for this molecule: COc1ccc([C@@H](O)c2cc(-c3ncnc4cc(N5CCOCC5)ccc34)c(F)cc2Cl)nn1 + Cc1cncc(-c2nc(NCCc3c[nH]c4ccccc34)c3ncn(C(C)C)c3n2)c1
81

Give reported viability, T/C value for CC(C)c1c(-c2ccccc2)nc2c(C#N)c[nH]n2c1=O + Cc1ccccc1N=Nc1ccc(NC(=O)c2ccnn2C)c(C)c1
91.6

----------
Recorded viability, T/C for the following compounds
# Tested on: 349418-098-R-PDC complex spheroid growth
# Assay Comment: Anticancer human tumor 349418-098-R-PDC cell line growth inhibition [AhR];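 note: spheroids also contain HUVEC endothelial cells and human MSC stroma; spheroids exposed to agents for seven days before luminescence viability read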
# Experimental Context: second compound 10 µM; first compound 0.01 µM; stronger effect = lower value

Use the examples below as a reference point.
| Compound | viability, T/C |
| --- | --- |
| CC[C@@]1(O)C(=O)OCc2c1cc1n(c2=O)Cc2cc3c(CN(C)C)c(O)ccc3nc2-1 + Cc1ccccc1N=Nc1ccc(NC(=O)c2ccnn2C)c(C)c1 | 38.2% |
| Cn1ncnc1C1c2n[nH]c(=O)c3cc(F)cc(c23)NC1c1ccc(F)cc1 (configuration not stated) + CC(CO)NC(=O)c1cc(-c2ccc(Cl)cc2)nn(-c2cnn(C)c2)c1=O | 35.2% |
| CC1COCCN1c1cc(-c2ccnn2C)c2ccnc(-c3ccn[nH]3)c2n1 (configuration not stated) + CC(CO)NC(=O)c1cc(-c2ccc(Cl)cc2)nn(-c2cnn(C)c2)c1=O | 94% |

Give viability, T/C for the following compound: Cn1ncnc1C1c2n[nH]c(=O)c3cc(F)cc(c23)NC1c1ccc(F)cc1 (configuration not stated) + Cc1ccccc1N=Nc1ccc(NC(=O)c2ccnn2C)c(C)c1
51.2%

Entry CC[C@@]1(O)C(=O)OCc2c1cc1n(c2=O)Cc2cc3c(CN(C)C)c(O)ccc3nc2-1 + Cc1cncc(-c2nc(NCCc3c[nH]c4ccccc34)c3ncn(C(C)C)c3n2)c1 needs its viability, T/C filled in; supply it.
1.49%

----------
# System: 349418-098-R-PDC complex spheroid growth
# Assay Comment: Anticancer human tumor 349418-098-R-PDC cell line growth inhibition [AhR]; active means viability on the fitted dose curve at most 10% of control; inactive means the rest;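 note: spheroids also contain HUVEC endothelial cells and human MSC stroma; spheroids exposed to agents for seven days before luminescence viability read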
# Experimental Context: second compound 10 µM; first compound 3.16 µM
Your response should consist of one outcome taken from true for active, false for inactive

| Compound | Group Label |
| --- | --- |
| CC1(C)CCC(CN2CCN(c3ccc(C(=O)NS(=O)(=O)c4ccc(NCC5CCOCC5)c([N+](=O)[O-])c4)c(Oc4cnc5[nH]ccc5c4)c3)CC2)=C(c2ccc(Cl)cc2)C1 + CC(CO)NC(=O)c1cc(-c2ccc(Cl)cc2)nn(-c2cnn(C)c2)c1=O | false |
| COc1cc(C2c3cc4c(cc3C(OC3OC5COC(C)OC5C(O)C3O)C3COC(=O)C23)OCO4)cc(OC)c1O (configuration not stated) + Cc1cncc(-c2nc(NCCc3c[nH]c4ccccc34)c3ncn(C(C)C)c3n2)c1 | true |
| COc1cccc2c1C(=O)c1c(O)c3c(c(O)c1C2=O)CC(O)(C(=O)CO)CC3OC1CC(N)C(O)C(C)O1 (configuration not stated) + CC(CO)NC(=O)c1cc(-c2ccc(Cl)cc2)nn(-c2cnn(C)c2)c1=O | true |
| Nc1ccn(C2OC(CO)C(O)C2(F)F)c(=O)n1 (configuration not stated) + CC(CO)NC(=O)c1cc(-c2ccc(Cl)cc2)nn(-c2cnn(C)c2)c1=O | true |
| NS(=O)(=O)OCC1CC(n2ccc3c(NC4CCc5ccccc54)ncnc32)CC1O (configuration not stated) + CC(CO)NC(=O)c1cc(-c2ccc(Cl)cc2)nn(-c2cnn(C)c2)c1=O | false |

Which outcome did this test record for the compound COc1cccc2c1C(=O)c1c(O)c3c(c(O)c1C2=O)CC(O)(C(=O)CO)CC3OC1CC(N)C(O)C(C)O1 (configuration not stated) + Cc1ccccc1N=Nc1ccc(NC(=O)c2ccnn2C)c(C)c1 ?
true

Hey, what did the test say about Nc1ccccc1NC(=O)c1ccc(CNC(=O)OCc2cccnc2)cc1 + CC(CO)NC(=O)c1cc(-c2ccc(Cl)cc2)nn(-c2cnn(C)c2)c1=O ?
false

What is the recorded call for this compound in the test? COc1cc(Nc2ncc3c(n2)-c2ccc(Cl)cc2C(c2c(F)cccc2OC)=NC3)ccc1C(=O)O + CC(CO)NC(=O)c1cc(-c2ccc(Cl)cc2)nn(-c2cnn(C)c2)c1=O
false
